The measurements presented in this section are drawn from PubChem BioAssay AID1851.

- TARGET UNDER TEST: Cytochrome P450 1A2 (Homo sapiens) (UniProt P05177)
- Sequence (P05177 whole entry, looked up): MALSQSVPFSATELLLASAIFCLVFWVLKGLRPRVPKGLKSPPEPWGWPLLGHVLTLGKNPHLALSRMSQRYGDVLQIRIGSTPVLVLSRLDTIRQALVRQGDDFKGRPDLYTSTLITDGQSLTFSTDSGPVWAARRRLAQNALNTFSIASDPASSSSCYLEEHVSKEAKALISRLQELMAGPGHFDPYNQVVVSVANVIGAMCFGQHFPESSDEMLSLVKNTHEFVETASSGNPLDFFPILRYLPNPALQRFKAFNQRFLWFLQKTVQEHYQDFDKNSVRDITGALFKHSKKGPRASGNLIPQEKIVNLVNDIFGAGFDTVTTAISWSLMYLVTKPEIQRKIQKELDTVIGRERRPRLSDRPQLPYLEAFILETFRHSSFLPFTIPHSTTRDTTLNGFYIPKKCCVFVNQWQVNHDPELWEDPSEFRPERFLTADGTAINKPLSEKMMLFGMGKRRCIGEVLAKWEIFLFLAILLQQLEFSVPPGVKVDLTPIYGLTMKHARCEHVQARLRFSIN
- ASSAY DETAILS: Cytochrome panel assay with activity outcomes
- CONDITION: recombinant CYP, pro-luciferin dealkylation, luminescence, p450-cyp1a2; series mostly up to 57.1 µM
The whole screen tested about 16,000 compounds, of which about 5,700 (36%) were called active. Inconclusive results (about 24%) are left out. Calls come from the whole dose curve; as a rule, active = well fitted curve in the direction sought with a large enough effect; inconclusive = small, poorly fitted or top-dose-only effect, or effect the other way; inactive = no such curve, though single readings can be large or run the other way. The list shows a part of the results.
Field 'call' accepts active, inactive

Below are worked cases with known answers.
Qu. Hi team, can someone confirm the assay call for COc1cccc(Cn2c(=O)c(-c3cccs3)nc3cnc(OC)nc32)c1 ?
Ans. active

Qu. Hi team, can someone confirm the assay call for O=C(O/N=C\c1ccc(N2CCCCC2)c([N+](=O)[O-])c1)c1c(F)cccc1F ?
Ans. active

Qu. Hi team, can someone confirm the assay call for Cc1ccc(OC(=O)c2ccc(N3CCOCC3)c([N+](=O)[O-])c2)cc1 ?
Ans. inactive

Qu. Hi team, can someone confirm the assay call for COc1ccccc1N1CCN(CCCCNC(=O)c2ccc3ccccc3c2)CC1 ?
Ans. inactive

Qu. Hi team, can someone confirm the assay call for COc1ccc(Nc2ncc(C(=O)N3CCN(c4ccc(F)cc4)CC3)c3ccccc23)cc1 ?
Ans. inactive

Qu. Hi team, can someone confirm the assay call for Cc1noc(C)c1-c1nc(Nc2ccccc2)c2ccccc2n1 ?
Ans. active

Qu. Hi team, can someone confirm the assay call for Cc1noc(C)c1-c1nc(Nc2ccncc2)c2ccccc2n1 ?
Ans. active

Qu. Hi team, can someone confirm the assay call for CCOc1ccc(C(=O)Nc2cnn(Cc3ccc(Cl)c(Cl)c3)c2)cc1 ?
Ans. active

Qu. Hi team, can someone confirm the assay call for O=C(Nc1ccccc1)C(Cc1ccccc1)NC(=O)C12CC3CC(CC(C3)C1)C2 (stereo not given) ?
Ans. inactive

Qu. Hi team, can someone confirm the assay call for O=C(Nc1ccccc1C(=O)Nc1ccc2c(c1)OCO2)c1ccco1 ?
Ans. active

Further cases:
Qu. Hi team, can someone confirm the assay call for Cc1ccc(NC(=O)CCC(=O)NNC(=O)c2ccco2)cc1C ?
Ans. inactive

Qu. Hi team, can someone confirm the assay call for Cn1c(=O)c2c(nc(Cl)n2Cc2ccc(Cl)c(Cl)c2)n(C)c1=O ?
Ans. active
